test system: oilseed rape (Brassica napus); experiment: Test D pre-/postemergence plant response; format: in vivo; details: Postemergence, 125 g ai/ha; scale 0 to 100, 0 no effect, 100 complete control
reported property: Plant response rating, Oilseed Rape

Entry Clc1cnc(Oc2ccccc2-c2cc(Cl)sn2)nc1 — recorded Plant response rating, Oilseed Rape = 50

The recorded Plant response rating, Oilseed Rape for CC(F)(F)c1cc(-c2ccccc2Oc2ncc(Cl)cn2)on1 is 95

The compound Fc1ccc(Oc2ncc(Cl)cn2)c(-c2cc(C(F)F)on2)c1F showed Plant response rating, Oilseed Rape equal to 90

get_value(item= Clc1cnc(Oc2ccccc2-c2cc(C3CC3)on2)nc1 , readout=Plant response rating, Oilseed Rape) returns 100

Lab note: Fc1ccc(Oc2ncc(Cl)cn2)c(-c2cc(C(F)(Cl)Cl)on2)c1 gave Plant response rating, Oilseed Rape of 90

Entry FC(Cl)(Cl)c1cc(-c2ccccc2Oc2ncc(Cl)cn2)no1 ; Plant response rating, Oilseed Rape = 90

Just so you know, measured Plant response rating, Oilseed Rape for FC(F)c1cc(-c2c(Cl)cccc2Oc2ncc(Cl)cn2)on1 came out at 95

Input Cc1cc(-c2c(F)cccc2Oc2ncc(Cl)cn2)on1 . Output Plant response rating, Oilseed Rape: 80

Data point: FC(F)c1cc(-c2c(Cl)cccc2Oc2ncc(Br)cn2)on1 ; Plant response rating, Oilseed Rape = 95

Consider FCc1cc(-c2ccccc2Oc2ncc(Cl)cn2)on1 . Its measured Plant response rating, Oilseed Rape is 98

====

Assignment: determine reported Soybean plant response rating for the given molecules.
tested on: soybean (Glycine max); assay: Test D pre-/postemergence plant response; format: in vivo; details: Postemergence, 31 g ai/ha; scale 0 to 100 (0 no effect, 100 complete control)
Enter the number alone.

Looking up FC(F)(Cl)c1cc(-c2ccccc2Oc2ncc(Cl)cn2)no1 [Compound 143] , I see its Soybean plant response rating listed as 30

Measured Soybean plant response rating of FC(F)c1cc(-c2c(Cl)cccc2Oc2ncc(Cl)cn2)on1 [Compound 120] : 70

// recorded Soybean plant response rating for FC(F)(Br)c1cc(-c2ccccc2Oc2ncc(Cl)cn2)no1 [Compound 162] : 10

Lab note: N#Cc1cccc(Oc2ncc(Cl)cn2)c1-c1cc(C(F)(F)F)on1 [Compound 157] gave Soybean plant response rating of 35

====

test system: lambsquarters (Chenopodium album); assay: Test D pre-/postemergence plant response; type: in vivo; conditions: Postemergence, 62 g ai/ha; scale 0 to 100, 0 no effect, 100 complete control
For each of the compounds below, state its Plant response rating, Lambsquarters.
Field format: numeric only.

For record FC(F)(Cl)c1cc(-c2ccccc2Oc2ncc(Cl)cn2)no1 the listed Plant response rating, Lambsquarters is 98

Summary for this compound, FC(F)(F)c1cc(-c2ccccc2Oc2ncc(Cl)cn2)ncn1 : Plant response rating, Lambsquarters is 5

Data point: FC(F)(Br)c1cc(-c2ccccc2Oc2ncc(Cl)cn2)no1 ; Plant response rating, Lambsquarters = 75

Sample FC(F)c1cc(-c2c(Cl)cccc2Oc2ncc(Cl)cn2)on1 ; Plant response rating, Lambsquarters observed: 100

// Fc1cccc(Oc2ncc(Cl)cn2)c1-c1cc(C2CC2)on1 : Plant response rating, Lambsquarters value = 100

====

Can you tell me Plant response rating, Corn for the items I'm about to list?
tested on: corn (Zea mays); experiment: Test B pre-/postemergence plant response; format: in vivo; conditions: 125 g ai/ha, postemergence; 0 to 100 scale, 0 no effect, 100 complete control
The answer should be a number; do not append a unit.

// field: Plant response rating, Corn; key: Fc1ccnc(-c2ccccc2Oc2ncc(Cl)cn2)c1 ; value = 0

Reported Plant response rating, Corn ( FC(F)c1cc(-c2ccccc2Oc2ncc(Br)cn2)on1 ) = 20

For reference, reported Plant response rating, Corn for CC(F)(F)c1cc(-c2ccccc2Oc2ncc(Br)cn2)no1 stands at 20

Just so you know, measured Plant response rating, Corn for Cc1ccnc(-c2ccccc2Oc2ncc(Cl)cn2)c1 came out at 0

# compound FC(F)(F)c1csc(-c2ccccc2Oc2ncc(Cl)cn2)n1 ; its Plant response rating, Corn = 0

Form: compound = Clc1cnc(Oc2ccccc2-c2ccon2)nc1 ; Plant response rating, Corn = 0

// sample Clc1cnc(Oc2ccccc2-c2nnc(C3CC3)o2)nc1 , its Plant response rating, Corn was 0

Sample Cc1nnc(-c2ccccc2Oc2ncc(Cl)cn2)o1 ; Plant response rating, Corn observed: 0

Kindly note the recorded Plant response rating, Corn for FC(F)(F)c1cc(-c2c(I)cccc2Oc2ncc(Cl)cn2)no1 , which is 20

Note to self: Plant response rating, Corn recorded for FC(F)(F)COCc1cc(-c2ccccc2Oc2ncc(Cl)cn2)on1 was 10

Sample FCc1cc(-c2ccccc2Oc2ncc(Cl)cn2)on1 ; Plant response rating, Corn observed: 20

Input Cn1nnnc1-c1ccccc1Oc1ncc(Br)cn1 . Output Plant response rating, Corn: 0

Clc1ccc(-c2c(I)cccc2Oc2ncc(Cl)cn2)nc1 yielded Plant response rating, Corn of 0

The recorded Plant response rating, Corn for entry Cc1nc(-c2ccccc2Oc2ncc(Cl)cn2)co1 equals 0

get_value(item= FC(F)(F)c1cc(-c2c(Cl)cccc2Oc2ncc(Cl)cn2)on1 , readout=Plant response rating, Corn) returns 70

Per the record, Clc1cnc(Oc2ccccc2-c2cc(Cl)cc(Cl)c2)nc1 has Plant response rating, Corn of 0

Consider Cc1cc(-c2ccccc2Oc2ncc(Cl)cn2)no1 . Its measured Plant response rating, Corn is 30

# compound CC(=O)c1cc(-c2ccccc2Oc2ncc(Cl)cn2)on1 ; its Plant response rating, Corn = 0

So for Clc1ccc(-c2c(Br)cccc2Oc2ncc(Cl)cn2)nc1 , the logged Plant response rating, Corn turned out to be 10

Given item CC(C)n1cnc(-c2ccccc2Oc2ncc(Cl)cn2)n1 , the value recorded as its Plant response rating, Corn is 0

====

test system: galium (catchweed bedstraw, Galium aparine); assay: Test D pre-/postemergence plant response; assay type: in vivo; settings: Preemergence; 62 g ai/ha; scale 0 to 100 (0 no effect, 100 complete control)
Give measured Plant response rating, Galium for each item. Keep answers brief.
The response must contain the number and no unit.

Lab entry: galium (catchweed bedstraw, Galium aparine) assay, compound FC(F)(F)c1cc(-c2ccccc2Oc2ncc(Cl)cn2)ncn1 , Plant response rating, Galium = 60

Considering N#Cc1cccc(Oc2ncc(Cl)cn2)c1-c1cc(C(F)F)on1 , its Plant response rating, Galium with galium (catchweed bedstraw, Galium aparine) was recorded as 98

Entry Cc1cc(-c2ccccc2Oc2ncc(Cl)cn2)on1 , tested on galium (catchweed bedstraw, Galium aparine), has a reported Plant response rating, Galium of 100

The observed Plant response rating, Galium for Fc1cccc(Oc2ncc(Br)cn2)c1-c1cc(C(F)F)on1 when tested with galium (catchweed bedstraw, Galium aparine) stands at 95

The value of Plant response rating, Galium recorded for FC(F)c1cc(-c2c(Cl)cccc2Oc2ncc(Cl)cn2)no1 when tested on galium (catchweed bedstraw, Galium aparine) reads 90

====

system: barnyardgrass (Echinochloa crus-galli); test: Test B pre-/postemergence plant response; format: in vivo; conditions: Postemergence, 1000 g ai/ha; 0 to 100 scale (0 no effect, 100 complete control)
reported property: Plant response rating, Barnyardgrass
Number only, please.

For record Clc1cnc(Oc2ccccc2-c2cc(Cl)sn2)nc1 the listed Plant response rating, Barnyardgrass is 100

# compound FCc1cc(-c2c(F)cccc2Oc2ncc(Cl)cn2)no1 ; its Plant response rating, Barnyardgrass = 100

According to the records, this compound CCOC(=O)c1cc(-c2ccccc2Oc2ncc(Cl)cn2)no1 displays Plant response rating, Barnyardgrass of 10

Plant response rating, Barnyardgrass for Fc1cnc(Oc2ccccc2-c2cc(Cl)sn2)nc1 is 90

Per the records, this compound ( FC(F)(F)Oc1cccc(-c2ccccc2Oc2ncc(Cl)cn2)c1 ) has Plant response rating, Barnyardgrass equal to 30

For record Clc1cnc(Oc2ccccc2-c2nnco2)nc1 the listed Plant response rating, Barnyardgrass is 0

Given item Clc1cnc(Oc2ccccc2-c2ncc(Cl)cn2)nc1 , the value recorded as its Plant response rating, Barnyardgrass is 50

Summary for this compound, Brc1cnc(Oc2ccccc2-c2nnco2)nc1 : Plant response rating, Barnyardgrass is 20

get_value(item= FCc1cc(-c2c(Br)cccc2Oc2ncc(Cl)cn2)no1 , readout=Plant response rating, Barnyardgrass) returns 100

Lab note: N#CCc1cc(-c2ccccc2Oc2ncc(Cl)cn2)no1 gave Plant response rating, Barnyardgrass of 90

====

Exercise: for every item that follows, state its recorded Plant response rating, Barnyardgrass.
tested on: barnyardgrass (Echinochloa crus-galli); assay: Test B pre-/postemergence plant response; assay type: in vivo; conditions: 31 g ai/ha, Postemergence; 0 to 100 scale, 0 no effect, 100 complete control

Test item CCn1nc(C(F)(F)F)cc1-c1c(C#N)cccc1Oc1ncc(Cl)cn1 ; barnyardgrass (Echinochloa crus-galli); reported Plant response rating, Barnyardgrass was 10

Brc1cnc(Oc2ccccc2-c2cc(Br)no2)nc1 on barnyardgrass (Echinochloa crus-galli) gives Plant response rating, Barnyardgrass = 0

// returns Plant response rating, Barnyardgrass for Fc1ccc(Oc2ncc(Cl)cn2)c(-c2cc(C(F)F)on2)c1Br with barnyardgrass (Echinochloa crus-galli); value = 10

# value of Plant response rating, Barnyardgrass, barnyardgrass (Echinochloa crus-galli), item COc1cccc(Oc2ncc(Cl)cn2)c1-c1cc(C(F)F)on1 = 60

Param item: FC(c1cc(-c2ccccc2Oc2ncc(Cl)cn2)no1)C(F)(F)F (centres unmarked) ; param system: barnyardgrass (Echinochloa crus-galli); output Plant response rating, Barnyardgrass: 20
